molecular target: NKp30 on human NK cells (human) (UniProt O14931); assay: cell-based or functional assay
Sequence (O14931 19-201): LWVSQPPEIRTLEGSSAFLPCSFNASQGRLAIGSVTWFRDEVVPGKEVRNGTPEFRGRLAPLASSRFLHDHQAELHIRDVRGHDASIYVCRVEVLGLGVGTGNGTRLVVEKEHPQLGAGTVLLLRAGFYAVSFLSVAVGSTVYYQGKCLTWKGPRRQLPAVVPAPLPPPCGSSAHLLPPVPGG
# EC50 (pM), A431 lysis with PBMC listing for each entry below
observed_property: EC50 (pM), A431 lysis with PBMC

[
  {
    "binder": "ΔB7-H6_S3#7-SEED-PGLALA (bispecific antibody, part only; not given: SEED Fc chains and hu225 Fab, part only) chain, part: DLKVEMMAGGTQITPLNDNVTIFCNIFYSQPLNITHMGITWFWKSLTFDKEVKVFEFYGDHQEAFRPGAIVSPWRLKSGDASLRLPGIQLEEAGEYRCEVVVTPYKAQGTVQLEVVASPAS",
    "observed_property": "EC50 (pM), A431 lysis with PBMC",
    "value": 45.4
  },
  {
    "binder": "ΔB7-H6_S3#1-SEED-PGLALA (bispecific antibody, part only; not given: SEED Fc chains and hu225 EGFR Fab, part only) chain, part: DLKVEMMAGGTQITPLNDNVTIFCNIFYSQPLNITTMGITWFWKSLTFDKEVKVFEFWGDHQEAFRPGAIVSPWRLKSGDASLRLPGIQLEEAGEYRCEVVVTPYKAQGTVQLEVVASPAS",
    "observed_property": "EC50 (pM), A431 lysis with PBMC",
    "value": 61.1
  }
]
